# measured.target: Factor X, P00742
# Sequence (P00742 whole entry, looked up): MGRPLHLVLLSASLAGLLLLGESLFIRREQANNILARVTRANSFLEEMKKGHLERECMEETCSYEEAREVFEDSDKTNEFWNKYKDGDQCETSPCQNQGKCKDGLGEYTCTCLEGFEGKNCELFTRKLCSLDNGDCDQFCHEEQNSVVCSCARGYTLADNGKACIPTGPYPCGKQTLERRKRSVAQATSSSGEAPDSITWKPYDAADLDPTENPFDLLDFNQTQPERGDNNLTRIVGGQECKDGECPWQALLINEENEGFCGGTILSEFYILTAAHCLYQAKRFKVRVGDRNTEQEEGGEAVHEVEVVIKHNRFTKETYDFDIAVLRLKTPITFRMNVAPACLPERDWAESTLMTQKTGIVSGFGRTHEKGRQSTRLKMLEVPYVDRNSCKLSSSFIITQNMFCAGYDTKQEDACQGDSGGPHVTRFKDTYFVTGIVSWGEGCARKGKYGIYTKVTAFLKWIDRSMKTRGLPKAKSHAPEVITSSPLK

- protein: "FIXa-Y155F/K247N/N249S/R318Y/R338E/T343R/R403E (protein) chain 1: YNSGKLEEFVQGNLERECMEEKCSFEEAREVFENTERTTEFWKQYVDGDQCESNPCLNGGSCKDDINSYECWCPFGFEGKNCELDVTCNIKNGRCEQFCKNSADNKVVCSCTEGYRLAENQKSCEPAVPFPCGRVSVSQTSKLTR chain 2: VVGGEDAKPGQFPWQVVLNGKVDAFCGGSIVNEKWIVTAAHCVETGVKITVVAGEHNIEETEHTEQNRSVIRIIPHHNYNAAINKYNHDIALLELDEPLVLNSYVTPICIADKEYTNIFLKFGSGYVSGWGRVFHKGYSALVLQYLRVPLVDRATCLESTKFRIYNNMFCAGFHEGGRDSCQGDSGGPHVTEVEGTSFLTGIISWGEECAMKGKYGIYTKVSEYVNWIKEKTKLT"
  result.unit: "M⁻¹ s⁻¹"
  kcat/KM: "2.9e+08"
